# test.name: Plasma concentration in Sprague-Dawley rat at 10 mg/kg, po after 60 mins
# Format: ADME, organism-based
# Design: dose 10 mg/kg, route oral

smiles.data	concentration at 1 h, ng/mL
CS(=O)(=O)NC1(c2ccccc2)CCN(c2ncnc3c2nc(-c2ccccc2Cl)n3-c2ccc(Cl)cc2)CC1	767

---

# Tested on: CHO-K1
# test.name: Selectivity ratio of Ki for human CB2 receptor expressed in CHO-K1 cells to Ki for human CB1 receptor expressed in CHO-K1 cells
Below, each entry is listed with its recorded Ratio Ki.

smiles.data	Ratio Ki
CC(C)NC(=O)NC1(c2ccccc2)CCN(c2ncnc3c2nc(-c2ccccc2Cl)n3-c2ccc(Cl)cc2)CC1	27
CC(C)NC(=O)NC1CCN(c2ncnc3c2nc(-c2ccccc2Cl)n3-c2ccc(Cl)cc2)CC1	175
O=S(=O)(NC1CCN(c2ncnc3c2nc(-c2ccccc2Cl)n3-c2ccc(Cl)cc2)CC1)c1ccccc1	4890
CC(C)(C)NC(=O)NC1(c2ccccc2)CCN(c2ncnc3c2nc(-c2ccccc2Cl)n3-c2ccc(Cl)cc2)CC1	784
CS(=O)(=O)NC1(c2ccccc2)CCN(c2ncnc3c2nc(-c2ccccc2Cl)n3-c2ccc(Cl)cc2)CC1	153
CCCCNC(=O)NC1CCN(c2ncnc3c2nc(-c2ccccc2Cl)n3-c2ccc(Cl)cc2)CC1	62
Cc1c(C(=O)N2CCC(C(N)=O)(c3ccccc3)CC2)nn(-c2ccc(Cl)cc2Cl)c1-c1ccc(Cl)cc1	1600
CC(C)(C)OC(=O)N1CCC(Nc2ncnc3c2nc(-c2ccccc2Cl)n3-c2ccc(Cl)cc2)CC1	568
CC(C)(C)OC(=O)NC1(c2ccccc2)CCN(c2ncnc3c2nc(-c2ccccc2Cl)n3-c2ccc(Cl)cc2)CC1	1960
CCCNC(=O)NC1CCN(c2ncnc3c2nc(-c2ccccc2Cl)n3-c2ccc(Cl)cc2)CC1	5
NC1(c2ccccc2)CCN(c2ncnc3c2nc(-c2ccccc2Cl)n3-c2ccc(Cl)cc2)CC1	151
CCNC(=O)NC1(c2ccccc2)CCN(c2ncnc3c2nc(-c2ccccc2Cl)n3-c2ccc(Cl)cc2)CC1	24
CCCNC(=O)NC1(c2ccccc2)CCN(c2ncnc3c2nc(-c2ccccc2Cl)n3-c2ccc(Cl)cc2)CC1	35
CS(=O)(=O)NC1CCN(c2ncnc3c2nc(-c2ccccc2Cl)n3-c2ccc(Cl)cc2)CC1	37
CC(C)(C)OC(=O)NC1CCN(c2ncnc3c2nc(-c2ccccc2Cl)n3-c2ccc(Cl)cc2)CC1	1140
NC(=O)C1(c2ccccc2)CCN(c2ncnc3c2nc(-c2ccccc2Cl)n3-c2ccc(Cl)cc2)CC1	3080
